Just for reference, the supplement of paper PMC8728848 is where these values come from.

Biological target: Neu5Ac(a2-3)Gal(b1-4)GlcNAc(b1-6)[Gal(b1-3)]GalNAc
Experiment: glycan array binding signal (z-score within array); higher = stronger binding
Settings: glycan notation: IUPAC condensed, linker removed
The sample as a whole holds a higher share of the strongest signals than the screen did.
Classification by glycan array binding signal (z-score) follows these ranges: one: < -0.07; two: ≥ -0.07 and < 2; three: ≥ 2

Worked cases, answers included:
- SefD (Salmonella enterica), Q9L6K6 (protein) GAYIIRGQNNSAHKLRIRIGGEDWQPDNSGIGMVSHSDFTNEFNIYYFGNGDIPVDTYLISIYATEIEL: three
- BabA (Helicobacter pylori), O52269_HELPY (protein) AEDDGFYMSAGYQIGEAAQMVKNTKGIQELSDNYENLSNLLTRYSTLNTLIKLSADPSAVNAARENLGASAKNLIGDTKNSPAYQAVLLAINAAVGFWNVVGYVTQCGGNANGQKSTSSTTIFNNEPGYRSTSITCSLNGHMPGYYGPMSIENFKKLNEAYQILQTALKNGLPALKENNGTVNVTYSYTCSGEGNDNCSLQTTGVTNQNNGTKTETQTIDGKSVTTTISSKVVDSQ: two
- Pwp7 (Candida glabrata) (protein) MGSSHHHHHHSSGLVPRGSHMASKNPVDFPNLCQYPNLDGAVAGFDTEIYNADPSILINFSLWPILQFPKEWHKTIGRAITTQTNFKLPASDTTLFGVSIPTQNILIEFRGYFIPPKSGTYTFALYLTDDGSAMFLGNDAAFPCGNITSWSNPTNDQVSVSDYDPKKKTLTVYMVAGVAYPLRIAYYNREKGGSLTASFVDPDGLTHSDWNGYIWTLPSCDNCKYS: one
- Mg3lysM (Mycosphaerella graminicola) (protein) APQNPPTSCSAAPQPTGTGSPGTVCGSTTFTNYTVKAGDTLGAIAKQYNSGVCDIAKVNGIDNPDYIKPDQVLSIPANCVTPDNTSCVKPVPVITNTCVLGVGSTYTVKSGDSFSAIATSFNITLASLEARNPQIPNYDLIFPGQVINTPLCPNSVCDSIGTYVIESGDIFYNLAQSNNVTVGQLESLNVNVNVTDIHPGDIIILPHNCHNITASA: two
- Wzz (Escherichia coli) (protein) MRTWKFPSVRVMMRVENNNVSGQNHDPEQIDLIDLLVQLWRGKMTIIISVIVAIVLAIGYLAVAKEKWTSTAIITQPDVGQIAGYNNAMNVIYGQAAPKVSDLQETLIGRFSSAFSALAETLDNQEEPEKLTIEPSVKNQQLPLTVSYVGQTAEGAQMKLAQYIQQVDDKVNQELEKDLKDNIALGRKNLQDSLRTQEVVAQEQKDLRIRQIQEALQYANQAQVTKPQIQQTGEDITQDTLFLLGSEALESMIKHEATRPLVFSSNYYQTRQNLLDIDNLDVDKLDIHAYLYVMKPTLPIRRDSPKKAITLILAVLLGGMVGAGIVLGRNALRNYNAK: two
- LecB LY19 (Pseudomonas aeruginosa) (protein) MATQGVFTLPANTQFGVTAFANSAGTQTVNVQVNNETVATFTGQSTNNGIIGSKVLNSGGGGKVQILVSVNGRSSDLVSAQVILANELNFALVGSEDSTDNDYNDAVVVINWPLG: one
- Aap arpt (Staphylococcus epidermidis) (protein) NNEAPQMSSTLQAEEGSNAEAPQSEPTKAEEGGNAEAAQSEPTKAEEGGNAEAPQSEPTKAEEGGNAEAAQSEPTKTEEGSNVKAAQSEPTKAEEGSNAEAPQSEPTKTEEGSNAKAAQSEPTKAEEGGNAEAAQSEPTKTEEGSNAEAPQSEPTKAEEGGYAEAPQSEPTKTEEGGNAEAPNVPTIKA: two
- Fm1D (Escherichia coli) (protein) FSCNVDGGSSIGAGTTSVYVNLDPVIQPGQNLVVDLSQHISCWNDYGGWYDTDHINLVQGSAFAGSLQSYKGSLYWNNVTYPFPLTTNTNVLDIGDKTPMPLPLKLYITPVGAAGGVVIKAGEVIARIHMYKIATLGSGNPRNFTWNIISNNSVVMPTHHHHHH: three

Class for Epa1 (Candida glabrata) (protein) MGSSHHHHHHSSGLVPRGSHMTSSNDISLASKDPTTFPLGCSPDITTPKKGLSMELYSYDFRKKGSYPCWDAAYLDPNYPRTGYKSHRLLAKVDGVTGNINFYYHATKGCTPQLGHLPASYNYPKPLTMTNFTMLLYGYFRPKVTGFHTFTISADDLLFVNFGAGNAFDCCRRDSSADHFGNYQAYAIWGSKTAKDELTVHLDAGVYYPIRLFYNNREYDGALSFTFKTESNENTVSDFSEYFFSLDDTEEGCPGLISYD ?
two
